B1: TPR t1 (parent)
chain: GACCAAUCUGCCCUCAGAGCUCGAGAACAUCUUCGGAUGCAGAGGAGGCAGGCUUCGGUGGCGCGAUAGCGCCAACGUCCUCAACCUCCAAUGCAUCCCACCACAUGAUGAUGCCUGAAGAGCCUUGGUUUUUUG

# Variants of: B1
# method-summary: polymerase ribozyme fitness, log enrichment relative to wild type (log ratio); higher = more active; in vitro selection for triplet polymerase activity
reported-endpoint: polymerase ribozyme fitness (log ratio)
Reply briefly: the number, and no unit.

| mutation-key | reported-endpoint | experimental-value |
| --- | --- | --- |
| G52A G63U | polymerase ribozyme fitness (log ratio) | -2.08 |
| C4A A95U | polymerase ribozyme fitness (log ratio) | -1.38 |
| A29U G48A A111C | polymerase ribozyme fitness (log ratio) | -2.11 |

INPUT: Please indicate polymerase ribozyme fitness (log ratio) recorded for G19A G63A U92A
OUTPUT: -4.56

INPUT: Please indicate polymerase ribozyme fitness (log ratio) recorded for C80U A90U
OUTPUT: -0.991
